# Lookup of reported microsomal CLint keyed by entry
- Test protocol: Clearance in mouse liver microsomes
- Format: in vitro ADME
- Details: mouse, liver microsomes, CSV supplement; read-out: CLint in vitro Mouse Microsomes

GET /values?readout=microsomal CLint&item= CC(C)(C)OC(=O)N[C@H]1Cc2ccc(cc2)Oc2ccc(cc2)C(=O)CNC(=O)[C@H](Cc2ccccc2)NC1=O [Compound 1] > 578 µL/min/mg

GET /values?readout=microsomal CLint&item= CC(C)(C)OC(=O)N[C@H]1CCc2ccc(cc2)Oc2ccc(cc2NC(=O)c2ccccn2)C(=O)CNC(=O)[C@H](Cc2ccccc2)NC1=O [Compound 5] > 578 µL/min/mg

Continue with the next molecule.
GET /values?readout=microsomal CLint&item= COc1ccc(C[C@H](NC(=O)OC(C)(C)C)C(=O)N[C@@H](Cc2ccccc2)C(=O)NCC(=O)c2cccc(NC(=O)c3ccccn3)c2)cc1 [Compound 4] > 578 µL/min/mg

###

- Test system: primary mouse macrophages (PMMs)
- Test protocol: Host cell cytotoxicity in primary mouse macrophages (PMM)
- Format: cell-based
- Details: CSV supplement; decimal comma
Measured metric: PMM Primary Mouse Macrophages (inf-LMPH) (cytotoxicity)

GET /values?readout=PMM Primary Mouse Macrophages (inf-LMPH) (cytotoxicity)&item= `CC(C)(C)OC(=O)N[C@H]1Cc2ccc(cc2)Oc2ccc(cc2)C(=O)CNC(=O)[C@H](Cc2ccccc2)NC1=O` 48,0 µM
